Listed next: entries and their corresponding Efficacy.
Target: Muscarinic acetylcholine receptor M1 (Homo sapiens)
Sequence (whole entry): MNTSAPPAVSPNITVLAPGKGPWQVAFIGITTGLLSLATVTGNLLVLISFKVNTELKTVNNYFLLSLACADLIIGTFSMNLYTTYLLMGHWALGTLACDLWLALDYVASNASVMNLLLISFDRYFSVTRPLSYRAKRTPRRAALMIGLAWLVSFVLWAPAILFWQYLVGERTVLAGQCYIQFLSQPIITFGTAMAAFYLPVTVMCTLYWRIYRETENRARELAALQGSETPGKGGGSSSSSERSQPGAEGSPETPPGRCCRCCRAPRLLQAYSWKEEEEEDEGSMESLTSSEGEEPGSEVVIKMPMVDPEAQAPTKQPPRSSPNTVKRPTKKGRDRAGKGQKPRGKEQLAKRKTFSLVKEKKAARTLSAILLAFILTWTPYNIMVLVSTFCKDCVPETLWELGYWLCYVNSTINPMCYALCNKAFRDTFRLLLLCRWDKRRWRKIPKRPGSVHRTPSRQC
Experiment: Agonist activity at human muscarinic M1 receptor expressed in CHO cells assessed as calcium mobilization at 1 uM by FLIPR assay relative to control
Type: functional, cell-based
Reported Endpoint: Efficacy (%)

Smiles Record: CCOC(=O)N1CCC(CN2CCC3(CC2)OC(=O)N(C)c2ncccc23)CC1
System Under Test: Muscarinic acetylcholine receptor M1 (Homo sapiens)
Reported Endpoint: Efficacy
Test Result: 80

Smiles Record: CCOC(=O)N1CCC(CN2CCC3(CC2)CC(=O)N(CC)c2ncccc23)CC1
System Under Test: Muscarinic acetylcholine receptor M1 (Homo sapiens)
Reported Endpoint: Efficacy
Test Result: 91

Smiles Record: CCCN1C(=O)CC2(CCN(CC3CCN(C(=O)OCC)CC3)CC2)c2cccnc21
System Under Test: Muscarinic acetylcholine receptor M1 (Homo sapiens)
Reported Endpoint: Efficacy
Test Result: 74

Smiles Record: CCOC(=O)N1CCC(CN2CCC3(CC2)OC(=O)Nc2ncccc23)CC1
System Under Test: Muscarinic acetylcholine receptor M1 (Homo sapiens)
Reported Endpoint: Efficacy
Test Result: 99

Smiles Record: CCOC(=O)N1CCC(CN2CCC3(CC2)CC(=O)Nc2ncccc23)CC1
System Under Test: Muscarinic acetylcholine receptor M1 (Homo sapiens)
Reported Endpoint: Efficacy
Test Result: 89

Smiles Record: CCOC(=O)N1CCC(CN2CCC3(CC2)CC(=O)N(C)c2ncccc23)CC1
System Under Test: Muscarinic acetylcholine receptor M1 (Homo sapiens)
Reported Endpoint: Efficacy
Test Result: 85
